Source: the supplement of paper PMC4022240

- target.under.test: anti-H3K9me3 antibody ab8898
- test.summary: peptide microarray binding signal (635 nm), min-max normalized on array (fraction of array maximum); higher = stronger binding
- experimental.parameters: peptide region: Unmod H2B variant; binder concentration: 1:2,000 dilution
A collection of binders and their measured peptide microarray binding signal
quantity.name: peptide microarray binding signal

| binder | quantity.name | result |
| --- | --- | --- |
| YNKRSTITSREIQ [Unmod H2B variant Y N K R S T I T S R E I Q] | peptide microarray binding signal | 0.000936 |
| GISSKAMSIMNSF [Unmod H2B variant G I S S K A M S I M N S F] | peptide microarray binding signal | 0.000936 |
| PEPAKSAPAPKKG [Unmod H2B variant P E P A K S A P A P K K G] | peptide microarray binding signal | 0.000408 |
| NSFVNDIFERIAG [Unmod H2B variant N S F V N D I F E R I A G] | peptide microarray binding signal | 0.00074 |
| PEPVKSAPVPKKG [Unmod H2B variant P E P V K S A P V P K K G] | peptide microarray binding signal | 0.000997 |
| KVLKQVHPDTGIS [Unmod H2B variant K V L K Q V H P D T G I S] | peptide microarray binding signal | 0.000483 |
| AMSIMNSFVTDIF [Unmod H2B variant A M S I M N S F V T D I F] | peptide microarray binding signal | 0.00523 |
| IAGEASRLAHYNK [Unmod H2B variant I A G E A S R L A H Y N K] | peptide microarray binding signal | 0.00217 |
| VPKKGSKKAINKA [Unmod H2B variant V P K K G S K K A I N K A] | peptide microarray binding signal | 0.000196 |
| KHAVSEGTKAVTK [Unmod H2B variant K H A V S E G T K A V T K] | peptide microarray binding signal | 0.000378 |
| DIFERIAGEASRL [Unmod H2B variant D I F E R I A G E A S R L] | peptide microarray binding signal | 0.00234 |
| EIQTAVRLLLPGE [Unmod H2B variant E I Q T A V R L L L P G E] | peptide microarray binding signal | 0.00628 |
| YSKRSTISSREIQ [Unmod H2B variant Y S K R S T I S S R E I Q] | peptide microarray binding signal | 0.00103 |
| PELAKSAPAPKKG [Unmod H2B variant P E L A K S A P A P K K G] | peptide microarray binding signal | 0.000951 |
| DIFERIASEASRL [Unmod H2B variant D I F E R I A S E A S R L] | peptide microarray binding signal | 0.000453 |
| KRTRKESYSIYIY [Unmod H2B variant K R T R K E S Y S I Y I Y] | peptide microarray binding signal | 0.000468 |
